target.or.test.system: Microphthalmia-associated transcription factor (Homo sapiens) (UniProt O75030)
Sequence (O75030 whole entry, looked up): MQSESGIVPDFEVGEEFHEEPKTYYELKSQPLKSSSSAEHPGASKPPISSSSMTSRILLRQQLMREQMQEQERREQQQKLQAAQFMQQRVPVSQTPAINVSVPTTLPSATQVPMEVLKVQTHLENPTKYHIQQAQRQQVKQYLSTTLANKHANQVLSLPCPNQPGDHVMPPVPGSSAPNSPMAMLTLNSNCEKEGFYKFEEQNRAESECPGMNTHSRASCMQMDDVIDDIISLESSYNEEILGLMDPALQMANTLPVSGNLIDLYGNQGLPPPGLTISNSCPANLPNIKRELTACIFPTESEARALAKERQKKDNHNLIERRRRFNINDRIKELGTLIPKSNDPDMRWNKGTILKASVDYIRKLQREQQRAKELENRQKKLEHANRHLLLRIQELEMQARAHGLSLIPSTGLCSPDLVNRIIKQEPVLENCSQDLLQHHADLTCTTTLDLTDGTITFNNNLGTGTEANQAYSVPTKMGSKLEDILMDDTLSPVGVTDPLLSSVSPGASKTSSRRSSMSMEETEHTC
method: MITF inhibitors, potency by titration, dose response, biochemical, AlphaScreen, human (AID 1259371)
assay.context: AlphaScreen biochemical MITF assay, signal inhibition
The source made the active and inactive calls. How the calls were made is not given here.
Outcome field: choose from yes = active, no = inactive

Outcome? OC[C@H]1OC([S-])[C@H](O)[C@@H](O)[C@@H]1O.[Au+] (some centres undefined) no

Outcome? O=C(NCCO)c1ccc2nc(-c3ccco3)c(-c3ccco3)nc2c1 yes

Outcome? CN1CCN(CCNC(=O)c2cccc(CN(C(=O)c3nc4ccc(-c5cn[nH]c5)cc4s3)C3CC3)c2)CC1 yes

Outcome? COc1cc(/C=N/N=C2\NC(=O)C(CC(=O)O)S2)ccc1OCc1ccc(C)cc1 (centres undefined) no

Outcome? Cc1ccc(C(=O)N/C(=C/c2ccc([N+](=O)[O-])o2)C(=O)O)cc1 no

Outcome? COc1cccc(CN2CCN(C(=O)c3ccc(F)cc3)CC2)c1 no

Outcome? C/C(=N\NC(=O)Cc1cc(=O)[nH][nH]1)c1ccco1 no

Outcome? Cc1ccc(/C(C#N)=C\c2ccco2)cc1 no

Outcome? CC1CCC(N2CCN(Cc3ccco3)CC2)CC1 (centres undefined) no

Outcome? Nc1ccc(NCCO)c(N)c1 no

Outcome? CN(CCC#N)C(=O)COC(=O)c1c2c(nc3ccccc13)/C(=C/c1ccco1)CC2 no

Outcome? O=C(CCCCC1SCC2NC(=O)NC21)NC1(c2ccc3c(c2)OCO3)CCCC1 (centres undefined) no

Outcome? O=C(OC1CCCC1=O)c1ccc(N2CCCC2=O)cc1 (centres undefined) no

Outcome? O=C1NC(=O)/C(=C\c2ccc(O)cc2O)S1 no

Outcome? COc1ccc(CN2CCN(Cc3ccccc3OC)CC2)cc1 no

Outcome? CC1=NN(c2ccc(C(=O)O)c(N)c2)C(=O)C1 no

Outcome? COc1c(O)cc(O)cc1O no

Outcome? O=C(O)c1cc(S(=O)(=O)Nc2ccc(-n3cnnn3)cc2)ccc1O no

Outcome? NC(=O)NC(=O)COC(=O)c1c2c(nc3ccccc13)/C(=C\c1ccco1)CCC2 yes

Outcome? CN(C)/C=C/C=C/C=C/C(=O)c1ccc(C(=O)/C=C/C=C/C=C/N(C)C)cc1 yes

Outcome? O=C(/C=C/c1ccc(-c2cccc(C(F)(F)F)c2)o1)c1ccco1 yes

Outcome? C=CC1=C(C)C2=Cc3c(C=C)c(C)c4[n]3[Sn+2][n]3c(c(C)c(CCC(=O)O)c3=CC3=NC(=C4)C(C)=C3CCC(=O)O)=CC1=N2 no

Outcome? CCCCCCCCCCCCCCCC(=O)OC[C@H](O)[C@H]1OC(=O)C(=O)C1O (some centres undefined) no

Outcome? CN(C)c1ccc(NC(=O)CSc2ncccc2C(=O)O)cc1 no

Outcome? O=C(Cn1ncn2cccc2c1=O)N1CCc2ccccc2C1 no

Outcome? CCC12c3ccccc3C(c3ccccc31)C1C(=O)NC(=O)C12 (centres undefined) no

Outcome? CCN(CC)CC(=O)Nc1ccc(OC)cc1 no

Outcome? CCOc1ccc(CN2CCN(Cc3cccnc3)CC2)cc1 no

Outcome? Cc1cc(N=Cc2ccc([N+](=O)[O-])o2)ccc1S(=O)(=O)O no

Outcome? CN1CC[C@H](Oc2cc(-c3cn[nH]c3)ccc2NC(=O)OCc2ccccc2)C1 no

Outcome? CCOC(=O)C1C2NC(=S)N(c3ccccc3)C1(C)Oc1cc(OC)ccc12 (centres undefined) no

Outcome? COc1ccc(C[C@@H]2NC(=O)[C@H]3CN(C(=O)NCc4ccccc4)CCN3C2=O)cc1 no

Outcome? CCC[C@@H]1NC(=O)[C@H]2CN(C(=O)NC3CCCCC3)CCN2C1=O yes

Outcome? N#CC1=C(N)n2c(s/c(=C\c3ccco3)c2=O)=C(C#N)C1c1ccco1 (centres undefined) yes

Outcome? S=c1[nH]nc(-c2ccco2)n1/N=C/C=C/c1ccco1 yes

Outcome? O=C1N[C@@H](CC2CCCCC2)C(=O)N2CCN(C(=O)NCc3ccccc3)C[C@H]12 no

Outcome? O=C(OC1(C(F)(F)F)C(=O)Nc2cc3c(cc21)OCO3)c1ccc(Cl)nc1 (centres undefined) yes

Outcome? O=C1CCCC2=C1C(c1ccc([N+](=O)[O-])o1)C1=C(CCCC1=O)O2 no

Outcome? O=C(O)c1cc2ncc(-c3n[nH]c(-c4cnc5cc(C(=O)O)nn5c4)c3[N+](=O)[O-])cn2n1 yes

Outcome? NC(=O)c1ccc2nc(-c3cccs3)sc2c1 no

Outcome? CCOC(=O)C1C2NC(=S)N(c3cccc(Cl)c3)C1(C)Oc1c(OC)cccc12 (centres undefined) no

Outcome? CN(N=O)c1cc(O)ccc1O yes

Outcome? CC[C@H](C)[C@@H]1NC(=O)[C@H]2CN(C(=O)Nc3cccc(F)c3)CCN2C1=O no

Outcome? O=c1c2ccccc2nc(-c2ccccc2)n1-c1ccccc1O no
